Listed next: entries and their corresponding TGI.
# Tested on: XF 498 CNS
# test_name: NCI tumour cell line growth inhibition, 48 h
assay_readout: TGI

{"columns": ["compound", "observed_measurement"],
 "data": [
  ["CC1CCC[P+](Cc2ccccc2)(c2ccccc2)CC1 (configuration not stated)", "> 100 µM"],
  ["Cc1cc2cccc(Cl)c2nc1C(=O)c1ccccc1", "> 100 µM"],
  ["COc1cc([C@@H]2c3cc4c(cc3C[C@H]3COC(=O)[C@@H]32)OCO4)cc(OC)c1OC", "1.88 µM"],
  ["O=C1CC[C@H]2CNC(=O)C[C@H]2C1", "> 100 µM"],
  ["COC(=O)C(CC(=O)c1cc2c(cc1I)OCO2)Cc1cc(OC)c(OC)c(OC)c1I (configuration not stated)", "> 100 µM"],
  ["COc1ccc(CNc2nc3ccc(C(F)(F)F)cc3nc2-c2ccccc2)cc1OC", "> 100 µM"],
  ["O=c1c(Cl)c(Cl)cnn1-c1ccccc1", "5.47 µM"],
  ["O=C(Nc1ccccc1[N+](=O)[O-])c1ccccc1", "> 100 µM"],
  ["OCc1c(-c2cccc3ccccc23)sc(-c2cccc3ccccc23)c1CO", "19.3 µM"],
  ["OCCNCO", "> 100 µM"],
  ["COc1cc2c(cc1O)[C@H](Cc1ccc(Oc3cc(C[C@H]4c5cc(OC)c(OC)cc5CCN4C)ccc3OC)cc1)NCC2", "24 µM"],
  ["C=C1CC(OC)(C(O)C(=O)N[C@H]2OCO[C@H]3C2O[C@H](C[C@@H](COC)OC)C(C)(C)C3OC)O[C@H](C)[C@@H]1C (some centres not stated)", "< 0.00482 µM"]
]}

====

Catalogue of TGI readings, one per entry.
# Test system: SF-268 CNS
# test_name: NCI tumour cell line growth inhibition, 48 h
assay_readout: TGI

{"columns": ["molecule", "system_tested", "assay_readout", "observed_measurement"],
 "data": [
  ["C/C(=N/NC(=S)Nc1cccc(C)c1)c1ccccn1", "SF-268 CNS", "TGI", "13.9 µM"],
  ["C[Si](C)(C)c1ccc(CC2(Cc3ccc([Si](C)(C)C)cc3)CCNC2)cc1", "SF-268 CNS", "TGI", "4.71 µM"],
  ["Cc1ccc(C2=Nc3c(c(C)nn3-c3ccccc3)N=C(C(=O)O)C2)cc1", "SF-268 CNS", "TGI", "> 10 µM"],
  ["Nc1ncnc2c1ncn2C(=O)NC12CC3CC(CC(C3)C1)C2", "SF-268 CNS", "TGI", "> 100 µM"],
  ["O=C(O[C@H](/C=C/c1ccccc1)P1(=O)N(Cc2ccccc2)[C@@H]2CCCC[C@H]2N1Cc1ccccc1)c1ccccc1", "SF-268 CNS", "TGI", "> 100 µM"],
  ["C[C@@H]1Cc2c([nH]c3ccccc23)[C@@H](c2c(F)cc(/C=C/C(=O)O)cc2F)N1CC(C)(C)F", "SF-268 CNS", "TGI", "31.8 µM"],
  ["NNC(=O)c1cnn(-c2ccnc3c(C(F)(F)F)cccc23)c1N", "SF-268 CNS", "TGI", "> 100 µM"],
  ["Cc1nc2nnc(C)n2c2c1C(=O)Nc1ccccc1N2", "SF-268 CNS", "TGI", "> 100 µM"],
  ["C1CN2N3CCCC23C1 (stereo not given)", "SF-268 CNS", "TGI", "> 100 µM"],
  ["CCOC(=O)c1cc(-c2ccc([N+](=O)[O-])cc2)n(-c2ccc(C(=O)O)c(O)c2)c1C", "SF-268 CNS", "TGI", "19.6 µM"]
]}

====

# System: RXF 393 renal
# test_name: NCI tumour cell line growth inhibition, 48 h; in the data active = GI50 below about 0.43 µM; inactive = the rest
Where a SMILES comes first, the peptide text is derived from it. [ ]: non-standard residue; d: D form. The star is where a group is joined. Bn2Val = CC(C)[C@@H](C(=O)*)N(Cc1ccccc1)Cc1ccccc1; NH(3,4-diMeO-benzyl) = COc1ccc(CN*)cc1OC; NMeV = CN[C@H](C(=O)O)C(C)C; dNMeA = CN[C@H](C)C(=O)O
Outcomes: active, inactive

{"columns": ["molecule", "system_tested", "label_class"],
 "data": [
  ["CC1=C2[C@@H](CC1)[C@]1(C)O[C@@](C(C)C)(C[C@H]1OC(=O)[C@H](C)O)[C@H]2OC(=O)/C=C/c1ccccc1", "RXF 393 renal", "active"],
  ["COc1ccc(CN2CCCC(C(=O)c3ccc(C(F)(F)F)cc3)C2)c(O)c1 (stereo unspecified)", "RXF 393 renal", "inactive"],
  ["COc1ccc(CNC(=O)[C@@H](C)N(C)C(=O)[C@@H]2CCCN2C(=O)[C@H](C(C)C)N(C)C(=O)[C@@H](NC(=O)[C@H](C(C)C)N(Cc2ccccc2)Cc2ccccc2)C(C)C)cc1OC (Bn2Val-V[NMeV]P[dNMeA]-{NH(3,4-diMeO-benzyl)})", "RXF 393 renal", "inactive"],
  ["COc1cccc(-c2nn(-c3ccccc3)cc2-c2ccnc(NCCCNS(=O)(=O)c3cccc(F)c3)c2)c1", "RXF 393 renal", "inactive"],
  ["ClCc1ccccc1CSc1ncnc2nc[nH]c12", "RXF 393 renal", "inactive"],
  ["C[C@@H]1Cc2c([nH]c3ccccc23)[C@@H](c2c(F)cc(/C=C/C(=O)O)cc2F)N1CC(C)(C)F", "RXF 393 renal", "inactive"]
]}

====

Reported TGI by item:
# Tested on: NCI-H23 lung
# test_name: NCI tumour cell line growth inhibition, 48 h
assay_readout: TGI

{"columns": ["molecule", "observed_measurement"],
 "data": [
  ["CCOC(=O)C1CC(O)C(=O)N1C (stereo unspecified)", "> 100 µM"],
  ["O=C(O)Cc1ccc2nc(COC(=O)c3ccccc3)sc2c1", "> 100 µM"],
  ["CC[n+]1ccc2c(c1)C(=O)c1nccc3c1c-2nc1ccccc13", "2.64 µM"],
  ["O=C(O/N=C1/CCC/C1=C\\c1ccccc1)c1ccc([N+](=O)[O-])cc1", "> 100 µM"],
  ["O=C(Cc1ccc(/C=C/C(=O)c2ncc[nH]2)cc1)Nc1ccc(Cl)cc1", "11.5 µM"],
  ["C1CN2N3CCCC23C1 (stereo unspecified)", "> 100 µM"],
  ["O=C(CCc1ccc(O)cc1)c1c(O)cc(O)cc1OC1OC(CO)C(O)C(O)C1O (stereo unspecified)", "> 100 µM"],
  ["O=C1c2ccccc2-c2c1c1cc3c(cc1c(=O)n2CCCCl)OCO3", "87.3 µM"],
  ["C[C@@H]1C[C@H](O)[C@]2(O)O[C@@H]3C[C@@]4(C=O)[C@@H](CC=C5[C@@H]4CC[C@]4(C)[C@@H](C6=CC(=O)OC6)CC[C@]54O)C[C@H]3O[C@@H]2O1", "0.0207 µM"],
  ["COc1ccc(NC2Oc3cc4c(cc3C(c3cc(OC)c(OC)c(OC)c3)C2C)OCO4)cc1 (stereo unspecified)", "> 89.7 µM"],
  ["O=C1CC[C@H]2CNC(=O)C[C@H]2C1", "> 100 µM"],
  ["COc1ccc(-n2cc(-c3ccc(OC)c(OC)c3)[nH]c2=S)cc1Cl", "> 100 µM"],
  ["OCCNCO", "> 100 µM"],
  ["COC(=O)[C@@H](C)C[C@H](Cc1ccccc1)NC(=O)c1nc([C@@H](C[C@H](C(C)C)N(C)C(=O)[C@@H](NC(=O)[C@H]2CCCN2C)C(C)C)OC(C)=O)sc1C", "> 25 µM"],
  ["CC(C)CCNC(=O)c1ccc(CNC(=O)/C=C/c2ccc(OCc3ccccc3)cc2)cc1", "> 100 µM"],
  ["O=[n+]1c(CBr)c(CBr)n([O-])c2ccccc21", "29.4 µM"],
  ["C#CC(C)(C)Oc1cc(O)c2c(=O)c3ccccc3n(C)c2c1", "> 100 µM"],
  ["COC(=O)CCCC(=O)C(=Nc1c(Cl)cccc1Cl)NNc1ccc(Cl)cc1", "> 100 µM"],
  ["COc1cc2c(c(OC)c1OC)-c1ccc(NCc3ccccc3)c(=O)cc1[C@@H](NC(C)=O)CC2", "54.9 µM"],
  ["COc1cc2c(cc1OC)C1C=NC(C(=O)O)(C2)c2ccccc21 (stereo unspecified)", "> 100 µM"],
  ["Cc1nc(Cl)c(CBr)c(Cl)n1", "3.69 µM"]
]}

====

# System: MCF7 breast
# test_name: NCI tumour cell line growth inhibition, 48 h
assay_readout: TGI (µM)

{"columns": ["compound", "operator", "observed_measurement"],
 "data": [
  ["COc1nc2c(cc1S(=O)(=O)c1ccccc1)CCc1c-2cnn1-c1ccccc1Cl", ">", 100],
  ["CCN(CC)CCCn1c(=O)c2cccnc2n2c3c(=O)n(C)c(=O)n(C)c3nc12", ">", 100],
  ["Cn1cc(C2=C(c3ccc(OC[C@@H](O)CO)cc3)C(=O)NC2=O)c2ccccc21", ">", 25],
  ["CN(C)CCNc1nc2ccccc2c2[nH]c3ccccc3c12", "=", 0.941],
  ["CNC(=O)c1cc(Oc2ccc3c(c2)sc2nc(-c4ccc(N)cc4)cn23)ccn1", ">", 100],
  ["O=c1nc2c(c(-c3cccc(Cl)c3)[nH]1)COC/C2=C\\c1cccc(Cl)c1", ">", 100],
  ["O=C1OC[C@@H]2Cc3c([nH]c4ccccc34)[C@@H](c3ccc(O)cc3)N12", ">", 100],
  ["COC(=O)C1CC(C=[N+](C)C)=C(SC)N1 (stereo not drawn)", ">", 100],
  ["N#CSCc1cccc(Nc2cc(=O)[nH]c(=O)[nH]2)c1", "=", 38.9],
  ["CN1C(=O)CN(NC(=O)C2=C(O)c3ccc(Br)cc3S(=O)(=O)N2)C1=S", ">", 100],
  ["O=C(O)/C=C/C(=O)Nc1ncn[nH]1", ">", 100],
  ["C[C@@H]1Cc2c([nH]c3ccccc23)[C@@H](c2c(F)cc(/C=C/C(=O)O)cc2F)N1CC(C)(C)F", "=", 25.6],
  ["N#Cc1c(O)c2c(c(O)c1C#N)C(=O)c1ccccc1C2=O", "=", 3.76],
  ["COc1cc([C@@H]2c3cc4c(cc3C[C@H]3COC(=O)[C@@H]32)OCO4)cc(OC)c1OC", "=", 2.03],
  ["CC1=CC(=O)N(n2c(C)n[nH]c2=O)C1=O", ">", 100],
  ["N#Cc1c2c(c(Nc3ccc(F)cc3)n3c1nc1ccccc13)CCC2", "=", 16],
  ["Nc1ncnc2c1ncn2C(=O)NC12CC3CC(CC(C3)C1)C2", ">", 100],
  ["O=C(O)Cc1ccc2nc(COC(=O)c3ccccc3)sc2c1", ">", 100],
  ["COc1cc2c(c(OC)c1OC)-c1ccc(NCc3ccccc3)c(=O)cc1[C@@H](NC(C)=O)CC2", "=", 19.7],
  ["O=c1c2cc(I)ccc2[nH]c(=S)n1Cc1ccccc1", ">", 100],
  ["CC[n+]1ccc2c(c1)C(=O)c1nccc3c1c-2nc1ccccc13", "=", 4.84],
  ["Cc1cccc(C[C@@]2(SCc3ccccc3)C(C)(C)[C@@H]3CC[C@@]2(C)C3)n1", "=", 26.8],
  ["Clc1ccc(Cc2nc3cc4ccccc4cc3[nH]2)cc1", ">", 100],
  ["CCOC(=O)c1cc(-c2ccc([N+](=O)[O-])cc2)n(-c2ccc(C(=O)O)c(O)c2)c1C", "=", 13.7],
  ["O=C1CCC(NC(=O)c2ccccc2)C(=O)N1 (stereo not drawn)", ">", 100],
  ["O=C1c2ccccc2-c2c1c1cc3c(cc1c(=O)n2CCCCl)OCO3", ">", 100],
  ["CCCNC(=O)OCc1c(COC(=O)NCCC)c(-c2ccc(Cl)c(Cl)c2)n2c1CCC2", "=", 19.8],
  ["CCn1c(=O)c2c3cc(O)ccc3oc2c2ccc(O)cc21", ">", 100],
  ["CCCCCCCCCCCCOC1C(CNCC2OC3OC(C)(C)OC3C2NC(=O)Nc2ccc(C(=O)OCC)cc2)OC2OC(C)(C)OC21 (stereo not drawn)", "=", 2.92],
  ["COc1cccc(-c2nc(-c3cnccn3)n(Cc3ccccc3)n2)c1", ">", 100],
  ["NNC(=O)c1cnn(-c2ccnc3c(C(F)(F)F)cccc23)c1N", ">", 100],
  ["O=[N+]([O-])C(=C(Sc1ccccc1)Sc1ccccc1)C(Cl)=C(Cl)Cl", "=", 1.05],
  ["CCC[C@H](C)[C@H]1NC(=O)[C@@H](NC(=O)[C@@H](CC(C)C)N(C)C(=O)C2CCCN2C(=O)[C@H](C)O)[C@@H](C)OC(=O)[C@H](CC(C)C)N(C)C(=O)[C@@H]2CCCN2C(=O)[C@H](CC(C)C)NC(=O)[C@@H](C)C(=O)[C@H](C(C)C)OC(=O)C[C@@H]1O (stereo partly drawn)", "=", 0.25]
]}
